The following compounds are shown together with reported Z.LYZ.NS values.
# Test system: ISC-enriched organoids
# protocolDetails: Primary screen, 384-well 2.5-D organoid differentiation (ENR+CD, 6 days): basal lysozyme secretion (LYZ.NS)
# Type: cell-based, murine
# assayConditions: Dose 10.00 uM; standard z score of FC
# Source text: High-throughput screening.
Where a name gives a salt, the structure may show the parent alone.

Look over these answered cases.
O=[N+]([O-])C=Cc1ccc2c(c1)OCO2 = −1.307
NC(=O)C1CCCc2c1[nH]c1ccc(Cl)cc21 (stereo not drawn) [EX 527 (Selisistat)] = 0.494
c1ccc(CNc2nc(NCc3ccccc3)c3ccccc3n2)cc1 [DBeQ] = −2.577
C=CCc1cccc(/C=N/NC(=O)CN2CCN(Cc3ccccc3)CC2)c1O [PAC-1] = 0.596
Nc1ncnc2n[nH]c(Nc3ccc(F)cc3)c12 [CGP57380] = −0.321

Check ISC-enriched organoids data and give Z.LYZ.NS for Cc1ccc(S(=O)(=O)c2ccc([N+](=O)[O-])o2)cc1 [NSC697923] .
−1.338

Check ISC-enriched organoids data and give Z.LYZ.NS for CC(C)NC[C@@H](C(=O)N1CCN(c2ncnc3c2[C@H](C)C[C@H]3O)CC1)c1ccc(Cl)cc1 [GDC-0068] .
−1.613

Check ISC-enriched organoids data and give Z.LYZ.NS for O=C(NCCN1CCOCC1)c1ccc(Cl)cc1 [Moclobemide (Ro 111163)] .
−0.243

Check ISC-enriched organoids data and give Z.LYZ.NS for COc1cccc2c1C(=O)c1c(O)c3c(c(O)c1C2=O)C[C@@](O)(C(C)=O)C[C@@H]3O[C@H]1C[C@H](N)[C@H](O)[C@H](C)O1 [Daunorubicin HCl] .
−2.262

Check ISC-enriched organoids data and give Z.LYZ.NS for CCN(CC)CCCC(C)Nc1nc(C)cc(Nc2ccc3nc(C)cc(N)c3c2)n1 (stereo not drawn) [NSC 23766] .
0.080

Check ISC-enriched organoids data and give Z.LYZ.NS for CNC(=O)c1ccc(N2C(=S)N(c3ccc(C#N)c(C(F)(F)F)c3)C(=O)C2(C)C)cc1F [Enzalutamide (MDV3100)] .
0.820

Check ISC-enriched organoids data and give Z.LYZ.NS for O=C(NC(NC(=S)Nc1ccc(F)c([N+](=O)[O-])c1)C(Cl)(Cl)Cl)C(c1ccccc1)c1ccccc1 (stereo not drawn) [CGK733] .
−1.063

Check ISC-enriched organoids data and give Z.LYZ.NS for CC(=O)c1cc([N+](=O)[O-])c(Sc2ccc(F)cc2F)s1 [P22077] .
−0.487

Check ISC-enriched organoids data and give Z.LYZ.NS for COc1cc2c(cc1Cc1cccc(Cl)c1F)c(=O)c(C(=O)O)cn2[C@H](CO)C(C)C [Elvitegravir (GS-9137, JTK-303)] .
−0.782

Check ISC-enriched organoids data and give Z.LYZ.NS for O=C(Nc1cccnc1)N1CCC(Cc2cccc(Oc3ccc(C(F)(F)F)cn3)c2)CC1 [PF-3845] .
−1.137
